- experimentalSystem: T1, biotinylated native human ApoC3 (human, UniProt P02656 21-99, biotinylated (site not stated))
- T1 construct: also called biotinylated human ApoC3
- T1 sequence (P02656 21-99): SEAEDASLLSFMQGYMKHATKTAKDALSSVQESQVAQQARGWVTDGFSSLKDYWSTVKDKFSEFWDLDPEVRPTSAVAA
- methodSummary: SPR, IgG1 over biotinylated ApoC3 on SA chip
- Experimental: Biotinylated native human ApoC3 was captured on a streptavidin coated SPR chip (GE Healthcare, cat. nr. BR100032) at pH 7.4, in accordance with the method provided by Biacore, by injection of 20 μl 10 μg/ml biotinylated native human ApoC3 reaching the surface density of approximately 500 RU. […] The resulting sensorgrams were analyzed using the BIAevaluation 4.1 software using Langmuir 1:1 binding model to derive binding kinetics. […]
Each record here notes measured KD pH5.5/KD pH7.4.
Please respond with just the number, no unit label.

Below, 3 binders whose answers are already recorded.
mAb1 (antibody, IgG1, V domains shown, Produced as full length IgG1 (kappa) in ExpiCHO-S cells; also called humanized anti-ApoC3 antibody mAb1) VH: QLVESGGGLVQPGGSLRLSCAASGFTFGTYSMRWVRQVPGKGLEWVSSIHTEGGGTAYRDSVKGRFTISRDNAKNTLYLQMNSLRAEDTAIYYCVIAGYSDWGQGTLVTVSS VL: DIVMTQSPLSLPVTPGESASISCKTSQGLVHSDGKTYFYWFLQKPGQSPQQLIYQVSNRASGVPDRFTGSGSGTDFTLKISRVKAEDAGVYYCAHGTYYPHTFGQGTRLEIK	5.22
mAb2 (antibody, IgG1, V domains shown, Produced as full length IgG1 (kappa) in ExpiCHO-S cells; also called humanized anti-ApoC3 antibody mAb2) VH: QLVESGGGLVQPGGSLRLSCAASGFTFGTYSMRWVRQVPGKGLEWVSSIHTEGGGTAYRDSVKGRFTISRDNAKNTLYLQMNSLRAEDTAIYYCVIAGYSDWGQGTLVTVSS VL: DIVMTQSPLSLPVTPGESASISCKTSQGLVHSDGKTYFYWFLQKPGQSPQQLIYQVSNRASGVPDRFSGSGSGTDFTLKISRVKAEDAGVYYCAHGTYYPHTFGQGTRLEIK	5.13
mAb20 (antibody, IgG1, V domains shown, Produced as full length IgG1 (kappa) in ExpiCHO-S cells; also called humanized anti-ApoC3 antibody mAb20) VH: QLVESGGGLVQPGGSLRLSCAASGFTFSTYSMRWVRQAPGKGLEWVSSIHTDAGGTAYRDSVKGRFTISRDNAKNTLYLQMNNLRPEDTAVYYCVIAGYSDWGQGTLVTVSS VL: DIVMTQSPGSLSVTPGEPASISCKTSQGLVHSGGKTYFYWFLQKPGQSPQQLIYQVSNRASGVPDRFTGSGSGTDFTLKISGVEAEDAGVYYCAHGTYYPHTFGQGTRLEIK	16.1

Switching to the query record.
Exercise: Dear colleague, I am looking for the recorded KD pH5.5/KD pH7.4 of the following binder: mAb8 (antibody, IgG1, V domains shown, Produced as full length IgG1 (kappa) in ExpiCHO-S cells; also called humanized anti-ApoC3 antibody mAb8) VH: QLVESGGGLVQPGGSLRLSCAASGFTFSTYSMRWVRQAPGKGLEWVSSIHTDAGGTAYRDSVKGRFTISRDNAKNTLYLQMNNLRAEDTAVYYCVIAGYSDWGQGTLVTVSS VL: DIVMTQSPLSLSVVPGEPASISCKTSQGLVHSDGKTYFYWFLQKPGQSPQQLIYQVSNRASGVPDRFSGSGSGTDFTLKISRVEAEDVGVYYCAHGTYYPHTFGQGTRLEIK
Solution: 7.34
